src = ChEMBL document CHEMBL5291721

Target: Type-1 angiotensin II receptor (Homo sapiens, UniProt P30556); further: assay procedure not described here
Sequence (P30556 whole entry): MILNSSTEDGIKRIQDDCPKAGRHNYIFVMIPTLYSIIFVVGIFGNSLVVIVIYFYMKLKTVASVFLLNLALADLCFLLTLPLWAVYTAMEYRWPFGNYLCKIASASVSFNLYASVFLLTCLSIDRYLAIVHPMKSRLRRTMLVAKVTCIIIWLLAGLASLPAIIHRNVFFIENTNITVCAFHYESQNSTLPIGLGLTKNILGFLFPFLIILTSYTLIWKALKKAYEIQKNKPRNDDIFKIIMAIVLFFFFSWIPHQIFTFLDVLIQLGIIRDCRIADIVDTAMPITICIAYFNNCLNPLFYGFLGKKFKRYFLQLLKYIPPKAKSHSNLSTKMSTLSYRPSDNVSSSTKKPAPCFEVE

{"compound": "CC(C(=O)O)c1ccc(C(=O)c2ccccc2)s1 (stereo not given)", "AC50": "> 10 µM"}
{"compound": "CCN1C(=O)NC(c2ccccc2)C1=O (stereo not given)", "AC50": "> 30 µM"}
{"compound": "C[C@H](Nc1ncnc2[nH]cnc12)c1cc2cccc(Cl)c2c(=O)n1-c1ccccc1", "AC50": "> 30 µM"}
{"compound": "NCC1(CC(=O)O)CCCCC1", "AC50": "> 30 µM"}
{"compound": "Oc1cc(Cl)ccc1Oc1ccc(Cl)cc1Cl", "AC50": "24 µM"}

---

Endpoint: AC50. System: Melanocortin receptor 4 (Homo sapiens, UniProt P32245). Items follow. Further: assay procedure not described here.
Sequence (P32245 whole entry): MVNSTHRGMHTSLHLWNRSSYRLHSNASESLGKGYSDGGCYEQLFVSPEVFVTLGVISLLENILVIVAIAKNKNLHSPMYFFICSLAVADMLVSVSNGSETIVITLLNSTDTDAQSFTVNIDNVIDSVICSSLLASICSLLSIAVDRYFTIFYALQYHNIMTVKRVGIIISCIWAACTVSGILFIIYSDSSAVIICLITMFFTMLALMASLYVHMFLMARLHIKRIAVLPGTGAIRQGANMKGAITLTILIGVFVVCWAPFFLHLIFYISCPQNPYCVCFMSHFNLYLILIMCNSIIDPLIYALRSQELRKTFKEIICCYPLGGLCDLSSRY

{"compound": "Nc1nc(Cl)nc2c1ncn2[C@@H]1O[C@H](CO)[C@@H](O)[C@@H]1F", "AC50": "> 30 µM"}
{"compound": "OCC(CO)N[C@H]1C[C@](O)(CO)[C@@H](O)[C@H](O)[C@H]1O", "AC50": "> 30 µM"}
{"compound": "CN1CCC(=C2c3ccccc3CC(=O)c3sccc32)CC1", "AC50": "> 10 µM"}
{"compound": "CCC(=O)[C@@]1(C)[C@H](C)C[C@H]2[C@@H]3CCC4=CC(=O)C=C[C@]4(C)[C@H]3[C@@H](O)C[C@@]21C [RIMEXOLONE]", "AC50": "> 10 µM"}
{"compound": "Nc1ccc(S(=O)(=O)Nc2ncccn2)cc1", "AC50": "> 10 µM"}
{"compound": "CNC1(C)C2CCC(C2)C1(C)C (stereo not drawn)", "AC50": "> 10 µM"}
{"compound": "CC(=O)Oc1ccccc1C(=O)O", "AC50": "> 30 µM"}
{"compound": "CC1=C(CC(=O)O)c2cc(F)ccc2/C1=C\\c1ccc([S+](C)[O-])cc1 (stereo not drawn)", "AC50": "> 30 µM"}
{"compound": "COc1ccc(C(Cl)=C(c2ccc(OC)cc2)c2ccc(OC)cc2)cc1", "AC50": "> 10 µM"}
{"compound": "O=C1CN=C(c2ccccc2Cl)c2cc([N+](=O)[O-])ccc2N1", "AC50": "> 30 µM"}
{"compound": "Oc1cc(O)c2c(c1)O[C@H](c1ccc(O)c(O)c1)[C@@H](O)C2", "AC50": "> 30 µM"}
{"compound": "CC(=O)N1CCN(c2ccc(OCC3COC(Cn4ccnc4)(c4ccc(Cl)cc4Cl)O3)cc2)CC1 (stereo not drawn)", "AC50": "> 10 µM"}
{"compound": "CC(C)(C)NCC(O)COc1cccc2c1CC(O)C(O)C2 (stereo not drawn)", "AC50": "> 10 µM"}
{"compound": "Nc1cc(N2CCCCC2)nc(N)[n+]1[O-]", "AC50": "> 30 µM"}
{"compound": "O=C(O)COC(=O)Cc1ccccc1Nc1c(Cl)cccc1Cl", "AC50": "> 30 µM"}
{"compound": "CN(C)[C@@H]1C(O)=C(C(=O)NCN2CCCC2)C(=O)[C@@]2(O)C(O)=C3C(=O)c4c(O)cccc4[C@@](C)(O)[C@H]3C[C@@H]12", "AC50": "> 10 µM"}
{"compound": "NCC1(CC(=O)O)CCCCC1", "AC50": "> 30 µM"}
{"compound": "CC1CC(OC(=O)C(O)c2ccccc2)CC(C)(C)C1 (stereo not drawn) [CYCLANDELATE]", "AC50": "> 10 µM"}
{"compound": "Cc1ccc(-c2ncc(Cl)cc2-c2ccc(S(C)(=O)=O)cc2)cn1", "AC50": "> 10 µM"}
{"compound": "CN(C)CCOC(=O)C(c1ccccc1)C1(O)CCCC1 (stereo not drawn) [CYCLOPENTOLATE]", "AC50": "> 10 µM"}
{"compound": "O=C(c1ccccc1)c1ccc2n1CCC2C(=O)O (stereo not drawn)", "AC50": "> 10 µM"}
{"compound": "OCCOCCN1CCN(C(c2ccccc2)c2ccc(Cl)cc2)CC1 (stereo not drawn) [HYDROXYZINE]", "AC50": "> 30 µM"}
{"compound": "C[C@H](CS)C(=O)N1CCC[C@H]1C(=O)O", "AC50": "> 30 µM"}
{"compound": "CC(C)C[C@H](NC(=O)[C@H](Cc1ccccc1)NC(=O)c1cnccn1)B(O)O", "AC50": "> 30 µM"}
{"compound": "CN(C)CCN(Cc1ccccc1)c1ccccn1", "AC50": "> 10 µM"}
{"compound": "OCC(O)COc1ccc(Cl)cc1 (stereo not drawn)", "AC50": "> 10 µM"}
{"compound": "CC(C)NCC(O)COc1ccc(CC(N)=O)cc1 (stereo not drawn)", "AC50": "> 30 µM"}
{"compound": "CCN(CC)CC(=O)Nc1c(C)cccc1C", "AC50": "22.7 µM"}
{"compound": "CC(C)(N)Cc1ccccc1", "AC50": "> 30 µM"}
{"compound": "O=C(O)CCCC[C@@H]1SC[C@@H]2NC(=O)N[C@@H]21", "AC50": "> 10 µM"}
{"compound": "C[C@@H](Cc1ccccc1)N(C)Cc1ccccc1", "AC50": "> 10 µM"}
{"compound": "CC(=O)SCC(Cc1ccccc1)C(=O)NCC(=O)OCc1ccccc1 (stereo not drawn)", "AC50": "> 30 µM"}
{"compound": "CCOC(=O)[C@H](CCc1ccccc1)N[C@@H](C)C(=O)N1Cc2ccccc2C[C@H]1C(=O)O", "AC50": "> 30 µM"}
{"compound": "N=C(N)NC(=O)Cc1c(Cl)cccc1Cl", "AC50": "> 30 µM"}
{"compound": "CN1C2CCCC1CC(NC(=O)c1nn(C)c3ccccc13)C2 (stereo not drawn)", "AC50": "> 30 µM"}
{"compound": "CN(C)CCCC1(c2ccc(F)cc2)OCc2cc(C#N)ccc21 (stereo not drawn)", "AC50": "> 30 µM"}
{"compound": "CCC1(C)CC(=O)NC1=O (stereo not drawn) [ETHOSUXIMIDE]", "AC50": "> 10 µM"}
{"compound": "CC(=O)[C@@]1(O)CC[C@H]2[C@@H]3C[C@H](C)C4=CC(=O)C=C[C@]4(C)[C@@]3(F)[C@@H](O)C[C@@]21C", "AC50": "> 10 µM"}
